Experiment: method code SF-AS, from DOI: 10.1021/jm00344a020, PMID: 7057427
MEASURED QUANTITY: logP

Consider the reported logP for these molecules:
INSERT INTO measurements (smiles, measured_quantity, recorded_number) VALUES
  ('CC(C)(C)C(=O)NN1CC=CCC1', 'logP', 1.03),
  ('O=C(NN1CC=CCC1)C12CC3CC(CC(C3)C1)C2', 'logP', 1.45),
  ('O=C(NN1CC=CCC1)c1cccc[n+]1[O-]', 'logP', -0.32),
  ('O=C(Cc1cccnc1)NN1CC=CCC1', 'logP', 0.05),
  ('O=C(COc1cccc2ccccc12)NN1CC=CCC1', 'logP', 1.96),
  ('O=C(NN1CC=CCC1)c1cccc(C(=O)NN2CC=CCC2)n1', 'logP', -0.52),
  ('O=C(Cc1ccc2c(c1)OCO2)NN1CC=CCC1', 'logP', 0.68),
  ('O=C(COc1ccccc1)NN1CC=CCC1', 'logP', -0.06);

(I) O=C(NN1CC=CCC1)c1cccs1
(II) O=C(NN1CC=CCC1)c1ccco1
Q: Rank I against II by their logP values and give the higher one. Select an item and report its label.
Ans: I
(I: 1.88, II: 0.81)

---

Assay: method code SF, from DOI: 10.1021/jm00344a020, PMID: 7057427
MEASURED QUANTITY: logP

INSERT INTO measurements (smiles, recorded_number) VALUES
  ('CCOC(=O)NN1CC=CCC1', 1.09),
  ('O=C(NN1CC=CCC1)C1CC1', 1.12),
  ('O=C(NN1CC=CCC1)C1CCCCC1', 0.45),
  ('O=C(NN1CC=CCC1)C1CCCCCC1', 1.5);

(P) O=C(NC1CCCC1)N1CC=CCC1
(Q) CC(=O)NN1CC=CCC1
Q: When the recorded logP values are compared, which is smaller: that of P or that of Q ? Select an item and report its label.
Ans: Q
